Kindly supply the reported inhibition at 1 µM values for the records listed here.
# System: SRS-A (slow reacting substance of anaphylaxis) contraction of ileum
# EXPERIMENT_SUMMARY: Anti-SRS-A action using ileus of guinea pigs
# Type: cell-based, Hartley strain male guinea pigs
# CONDITION_LABEL: Cavia porcellus, 5 min, 1/1000 mM; guinea pig ileum; SRS-A 20 units; compound five minutes before; read-out: 1/1000 mM SRS-A Inhibition Ratio %
Answers are plain numbers, in %.

| CHEMICAL_STRING | inhibition at 1 µM / % |
| --- | --- |
| COC(=O)c1cccc2c(=O)cc(-c3ccc(Cl)cc3Cl)[nH]c12 | 45.5 |
| CC(=O)OCCOC(=O)c1cccc2c(=O)cc(-c3ccccc3Cl)[nH]c12 | 64.2 |
| CC(C)OC(=O)c1ccc2c(c1)C(=O)CC(c1ccccc1)=N2 | 36.7 |

Field: inhibition at 1 µM. Fill in for each record below.
1. COC(=O)c1ccc2[nH]c(-c3ccccc3OC)cc(=O)c2c1
2. CCCCCCCCc1ccc(-c2cc(=O)c3cccc(C(=O)O)c3[nH]2)cc1

25.2
33.7

* * *

# Test system: SRS-A (slow reacting substance of anaphylaxis) contraction of ileum
# EXPERIMENT_SUMMARY: Anti-SRS-A action using ileus of guinea pigs
# Type: cell-based, Hartley strain male guinea pigs
# CONDITION_LABEL: Cavia porcellus, 5 min, 1/1000 mM; guinea pig ileum; SRS-A 20 units; compound five minutes before; read-out: 1/1000 mM SRS-A Inhibition Ratio %
What inhibition at 1 µM was measured for each of the following?
One number for each entry, in %.

| COMPOUND | inhibition at 1 µM (%) |
| --- | --- |
| O=C(O)c1ccc2[nH]c(-c3cc(Cl)ccc3Cl)cc(=O)c2c1 | 27.5 |
| COC(=O)c1ccc2[nH]c(-c3ccccn3)cc(=O)c2c1 | 25 |

Hey, can you go through the list below and give me inhibition at 1 µM for every item?
1. CC(C)Oc1ccccc1-c1cc(=O)c2cc(C(=O)O)ccc2[nH]1
2. CCCCCc1ccc(-c2cc(=O)c3cc(C(=O)OC)ccc3[nH]2)cc1

1: 31.8; 2: 36

Here are 7 compounds. What values of inhibition at 1 µM were reported for them?
1. O=C(O)c1ccc2[nH]c(-c3ccc(Cl)cc3)cc(=O)c2c1
2. CCc1ccccc1-c1cc(=O)c2cc(C(=O)O)ccc2[nH]1
3. CCOC(=O)c1cccc2c1N=C(c1ccccc1Cl)CC2=O
4. COC(=O)c1ccc2[nH]c(-c3ccc(Cl)cc3Cl)cc(=O)c2c1
5. CC(C)COCCOC(=O)c1cccc2c(=O)cc(-c3ccccc3Cl)[nH]c12
6. CCOC(=O)c1cccc2c(=O)cc(-c3ccccc3C)[nH]c12
7. CCOC(=O)c1ccc2c(c1)C(=O)CC(c1ccccc1)=N2 [Example 4, Ethyl 2-phenyl-4-quinolone-6-carboxylate]

22.5
25.4
75.9
19.3
25.4
19.8
27.5

For each entry beneath this line, provide reported inhibition at 1 µM.
1. C=CCn1c(-c2ccccc2)cc(=O)c2cc(C(=O)O)ccc21
2. COc1ccc(-c2cc(=O)c3cccc(C(=O)OCCO)c3[nH]2)cc1
3. COC(=O)c1ccc2[nH]c(-c3ccc(C(C)C)cc3)cc(=O)c2c1
4. COC(=O)c1ccc2c(c1)C(=O)CC(c1ccccc1)=N2

1. 24.3
2. 25.4
3. 24.2
4. 77
